biological target: KRAS G12D Ba/F3 cells (Homo sapiens, UniProt P01116, G12D, cells depend on it); assay: Ba/F3 proliferation assay, KRAS G12D; assay type: cell-based; settings: 72 h, AlamarBlue, read-out: KRAS G12D Ba/F3 IC50
Sequence (P01116 whole entry G12D): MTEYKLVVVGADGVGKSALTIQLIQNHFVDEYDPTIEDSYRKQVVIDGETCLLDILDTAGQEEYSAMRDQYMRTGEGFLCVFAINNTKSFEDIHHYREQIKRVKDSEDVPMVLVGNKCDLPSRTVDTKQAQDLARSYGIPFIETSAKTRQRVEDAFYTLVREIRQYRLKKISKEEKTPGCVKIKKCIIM
reportedEndpoint: GI50 (nM)

Look over these answered cases.
[
  {
    "smilesText": "C[C@H]1CN(C)CCN1c1cccc(-c2noc([C@@]3(C)CCCc4sc(N)c(C#N)c43)n2)n1",
    "GI50 (nM)": 961
  },
  {
    "smilesText": "C[C@H](Oc1nccc(-c2noc([C@@]3(C)CCCc4sc(N)c(C#N)c43)n2)n1)[C@@H]1CCCN1C",
    "GI50 (nM)": 214
  }
]

1: C[C@H]1CN(C)CCN1c1nccc(-c2noc([C@@]3(C)CCCc4sc(N)c(C#N)c43)n2)n1
2: C[C@H](Oc1cccc(-c2noc([C@@]3(C)CCCc4sc(N)c(C#N)c43)n2)n1)[C@@H]1CCCN1C
Lookup: Hello, I am sorting some records. Could you say if 1 or 2 has the smaller GI50 value? # respond with the chosen item's label
Found: 2
(2: 390 nM, 1: 1090 nM)

* * *

test: Plasma protein binding assay (PPB), equilibrium dialysis; type: in vitro ADME; details: bovine, 10% FCS in PBS, read-out: PPB 10% FCS (% fu)
reportedEndpoint: fraction unbound

[
  {
    "smilesText": "C[C@H](Oc1ccnc(-c2noc([C@@]3(C)CCCc4sc(N)c(C#N)c43)n2)n1)[C@@H]1CCCN1C",
    "assayValue": 0.61
  }
]

A: C[C@H](Oc1cccc(-c2noc([C@@]3(C)CCCc4sc(N)c(C#N)c43)n2)n1)[C@@H]1CCCN1C
B: C[C@H]1CN(C)CCN1c1cccc(-c2noc([C@@]3(C)CCCc4sc(N)c(C#N)c43)n2)n1
Lookup: Given the listed records, identify the one among A and B with higher fraction unbound. Lab log: write the label of the selected item as the result.
Found: A

* * *

test: Solubility measurement (DMSO solution precipitation method); assay type: physicochemical; conditions: aqueous buffer, kinetic from dmso stock; McIlvaine buffer pH 4.5, 24 h; read-out: solubility pH 4.5
reportedEndpoint: solubility at 24 h

Known solubility at 24 h results, listed for orientation:
[
  {
    "compound": "C[C@H](Oc1ccnc(-c2cc([C@@]3(C)CCCc4sc(N)c(C#N)c43)on2)n1)[C@@H]1CCCN1C [Example V-24]",
    "solubility at 24 h": "> 110 µg/mL"
  },
  {
    "compound": "C[C@H](Oc1cccc(-c2noc([C@@]3(C)CCCc4sc(N)c(C#N)c43)n2)n1)[C@@H]1CCCN1C [Example V-8]",
    "solubility at 24 h": "> 96 µg/mL"
  },
  {
    "compound": "C[C@H](Oc1ccnc(-c2noc([C@@]3(C)CCCc4sc(N)c(C#N)c43)n2)n1)[C@@H]1CCCN1C [Example V-11]",
    "solubility at 24 h": "> 116 µg/mL"
  }
]

# ---- query compound ----
Lookup: Please give the documented solubility at 24 h of C[C@H]1CNCCCN1c1nccc(-c2noc([C@@]3(C)CCCc4sc(N)c(C#N)c43)n2)n1 [Example V-6]
Found: 88 µg/mL
